- Tested on: RPMI-8226 leukemia
- experimental details: NCI-60 one-dose screen, 48 h (100 = growth as untreated, 0 = no growth, -100 = all killed)
- conditions used: 10 µM unless noted
The panel holds about 83,000 compounds, 20% with a hit somewhere; the sample as a whole holds those more often. Calls of active or inactive are those of the source. Rule for the calls: active = growth percent below 10; inactive = the rest.
// values below are reported growth

As a guide, the following entries are already answered.
COc1cc(-c2ccc3c(c2)NC(=O)/C3=C\c2ccc[nH]2)ccc1O ... 6.57% (active)
CCOc1nc(-c2ccccc2)cc2c(O)c(C(=O)N/N=C/c3ccc(O)cc3O)[nH]c(=O)c12 ... 38% (inactive)
Nc1n[nH]c2ccc([C@@H]3Nc4ccc5cn[nH]c5c4[C@H]4C5CCC(C5)[C@@H]34)cc12 (some centres undefined) ... 40.3% (inactive)
COc1ccc(/C=C/c2nc3ccccc3nc2/C=C/c2ccc(OC)cc2)cc1 ... 98.5% (inactive)
O=C1Nc2ccc(Br)cc2C12Oc1ccccc1C1CC(c3ccc(F)cc3)=NN12 (centres undefined) ... 84% (inactive)

**Q:** Can you look up the measured growth of COc1ccc(/C=C/c2nc(-c3n[nH]c(=O)n3-c3ccccc3)c3ccccc3n2)cc1 for me?
**A:** 89.6% (inactive)

**Q:** Can you look up the measured growth of CC1SC(c2ccc(N(C)C)cc2)N(NC(=O)C(O)(c2ccccc2)c2ccccc2)C1=O (centres undefined) for me?
**A:** 60.1% (inactive)

**Q:** Can you look up the measured growth of NC(=NCCCOc1ccc(Cl)cc1)Nc1ccc(C(F)(F)F)cc1 for me?
**A:** -1.68% (active)

**Q:** Can you look up the measured growth of CCOc1ccc(C(C)=O)cc1NC(=O)c1cccc(-c2nnn(CC)n2)c1 for me?
**A:** 22.4% (inactive)

---

- Test system: HCT-116 colon
- experimental details: NCI-60 one-dose screen, 48 h (100 = growth as untreated, 0 = no growth, -100 = all killed)
- conditions used: 10 µM unless noted
This is part of a sample that, as a whole, favours compounds with a hit. Of some 83,000 tested, about 20% had one in any assay. Active and inactive are the calls of the source. Rule for the calls: active = growth percent below 10; inactive = the rest.
// values below are reported growth

As a guide, the following entries are already answered.
COc1ccc(/C=C/c2nc3ccccc3nc2/C=C/c2ccc(OC)cc2)cc1 ... 89% (inactive)
Cn1cc(C(=O)c2nc(-c3c[nH]c4ccc(F)cc34)no2)c2cc(F)ccc21 ... 99.8% (inactive)
COc1ccc2c(c1)C(=O)/C(=C/c1cccnc1)CC2 ... 81.2% (inactive)
Cc1ccc(NC(=O)C2CCC(CN3CCN(C)CC3)CC2)cc1Nc1nccc(-c2cccnc2)n1 (stereo not given) ... 101% (inactive)
N#Cc1c(-c2ccc(Cl)cc2)nc(N=Nc2c(O)[nH]c3ccc(Cl)cc23)nc1N1CCOCC1 ... 93.2% (inactive)

**Q:** Can you look up the measured growth of COCCNc1ccc2c3c(cccc13)C(=O)N(CCN(C)C)C2=O for me?
**A:** 10.9% (inactive)

---

- System: SNB-75 CNS
- experimental details: NCI-60 one-dose screen, 48 h
- conditions used: 10 µM unless noted
This is part of a sample that, as a whole, favours compounds with a hit. Of some 83,000 tested, about 20% had one in any assay. Activity calls are given as the source filed them. Rule for the calls: active = growth percent below 10; inactive = the rest.
Give your call using only these classes: True = active, False = inactive

Solved entries:
COc1ccc(CN2c3ccccc3Sc3ccccc32)c(C(F)(F)F)c1 ... True
Cn1cc(C(=O)c2nc(-c3c[nH]c4ccc(Br)cc34)no2)c2cc(F)ccc21 ... False
Cc1cc(C)nc(SC2=C(Nc3cccc(Cl)c3C)C(=O)N(Cc3ccccc3)C2=O)n1 ... False
O=C1OCC2=C1C(c1ccncc1)c1cc3c(cc1N2CCO)OCO3 (stereo not given) ... False
CC/C=C\C/C=C\C[C@H]1C/C=C2/C(=O)C=C[C@@H]2C/C=C\CCC(=O)O1 ... False
Cn1cc(-c2nonc2-c2c[nH]c3ccccc23)c2cccnc21 ... False

**Q:** Hi, do you know how COc1ccc(-c2cc(=O)c3c(OC)c4ccoc4cc3o2)cc1 came out in this test?
**A:** False

**Q:** Hi, do you know how CCOC(=O)c1sc2nc(-c3cccc(OC)c3)nc(N3CCOCC3)c2c1C came out in this test?
**A:** False

**Q:** Hi, do you know how COC(=O)c1ccc(Cn2cnc3c(N)ncnc32)cc1 came out in this test?
**A:** False

**Q:** Hi, do you know how COc1cc2c(cc1-c1c(C)noc1C)ncc1nc(-c3ccccn3)n([C@H](C)COC(F)F)c12 came out in this test?
**A:** False
